These data points were gathered from patent US20050239806A1.

molecular target: EGFR (tyrosine 1173 phosphorylation) in Lung Cancer Cell Line A459 (Homo sapiens); construct: endogenous in cells; experiment: EGFR Autophosphorylation Inhibition Assay in Lung Cancer Cell Line A459; conditions: EGF-induced phosphorylation of tyrosine 1173
pIC50: −log10 of the molar value.
Overview of recorded pIC50 for various compounds

Incoming: Given the entry Oc1ccc(-c2cc3c(Sc4cccc(F)c4)ncnc3[nH]2)cc1 , report its measured pIC50.
Outgoing: 5.00 to 6.00

Incoming: Look at this compound and give its reported pIC50. Cc1cccc(Sc2ncnc3[nH]c(-c4ccc(O)cc4)cc23)c1
Outgoing: 5.00 to 6.00

Incoming: Tell me the measured pIC50 of COc1ccc(-c2cc3c(Sc4cccc(F)c4)ncnc3[nH]2)cc1 , please.
Outgoing: 5.00 to 6.00

Incoming: Need pIC50 of Oc1ccc(-c2cc3c(Oc4cccc(Br)c4)ncnc3[nH]2)cc1 , thanks.
Outgoing: 6.00 to 7.00

Incoming: Quick one: pIC50 of COc1ccc(-c2cc3c(Sc4ccc(C)cc4)ncnc3[nH]2)cc1 ?
Outgoing: 5.00 to 6.00

Incoming: What measured pIC50 goes with COc1cccc(-c2cc3c(Sc4cccc(F)c4)ncnc3[nH]2)c1 ?
Outgoing: 5.00 to 6.00

Incoming: So what's the measured pIC50 for this one? Oc1ccc(-c2cc3c(Sc4ccc(Cl)cc4)ncnc3[nH]2)cc1
Outgoing: 5.00 to 6.00

Incoming: So what does the record say about pIC50 for Oc1ccc(-c2cc3c(Sc4ccccc4)ncnc3[nH]2)cc1 ?
Outgoing: 6.00 to 7.00

Incoming: Which measured pIC50 value corresponds to COc1cccc(-c2cc3c(Sc4cccc(C)c4)ncnc3[nH]2)c1 ?
Outgoing: 5.00 to 6.00

Incoming: Looking for the measured pIC50 of COc1cccc(-c2cc3c(Sc4ccccc4)ncnc3[nH]2)c1 , can you help?
Outgoing: 5.00 to 6.00

Further cases:
Incoming: Consider the compound COc1cccc(-c2cc3c(Sc4ccccc4Cl)ncnc3[nH]2)c1 and give its measured pIC50.
Outgoing: 5.00 to 6.00

Incoming: Requested read-out: pIC50. Entry: COc1cccc(-c2cc3c(Sc4ccc(C)cc4)ncnc3[nH]2)c1
Outgoing: < 5.00

Incoming: Entry COc1cccc(-c2cc3c(Sc4cccc(Cl)c4)ncnc3[nH]2)c1 has what pIC50?
Outgoing: 6.00 to 7.00

Incoming: pIC50 for COc1ccc(-c2cc3c(Sc4cccc(Cl)c4)ncnc3[nH]2)cc1 ?
Outgoing: 5.00 to 6.00

Incoming: Quick one: pIC50 for Fc1ccc(Sc2ncnc3c2[nH]c2ccccc23)cc1 ?
Outgoing: 6.00 to 7.00

---

Each entry below lists one item and its recorded IC50 value.
molecular target: EGFR (tyrosine 1173 phosphorylation) in A431 cells (Homo sapiens, UniProt P00533); construct: endogenous in cells; test: EGFR Autophosphorylation Inhibition Assay in Epidermoid Carcinoma Cell Line A431; settings: EGF-induced phosphorylation of tyrosine 1173
Sequence (P00533 25-1210): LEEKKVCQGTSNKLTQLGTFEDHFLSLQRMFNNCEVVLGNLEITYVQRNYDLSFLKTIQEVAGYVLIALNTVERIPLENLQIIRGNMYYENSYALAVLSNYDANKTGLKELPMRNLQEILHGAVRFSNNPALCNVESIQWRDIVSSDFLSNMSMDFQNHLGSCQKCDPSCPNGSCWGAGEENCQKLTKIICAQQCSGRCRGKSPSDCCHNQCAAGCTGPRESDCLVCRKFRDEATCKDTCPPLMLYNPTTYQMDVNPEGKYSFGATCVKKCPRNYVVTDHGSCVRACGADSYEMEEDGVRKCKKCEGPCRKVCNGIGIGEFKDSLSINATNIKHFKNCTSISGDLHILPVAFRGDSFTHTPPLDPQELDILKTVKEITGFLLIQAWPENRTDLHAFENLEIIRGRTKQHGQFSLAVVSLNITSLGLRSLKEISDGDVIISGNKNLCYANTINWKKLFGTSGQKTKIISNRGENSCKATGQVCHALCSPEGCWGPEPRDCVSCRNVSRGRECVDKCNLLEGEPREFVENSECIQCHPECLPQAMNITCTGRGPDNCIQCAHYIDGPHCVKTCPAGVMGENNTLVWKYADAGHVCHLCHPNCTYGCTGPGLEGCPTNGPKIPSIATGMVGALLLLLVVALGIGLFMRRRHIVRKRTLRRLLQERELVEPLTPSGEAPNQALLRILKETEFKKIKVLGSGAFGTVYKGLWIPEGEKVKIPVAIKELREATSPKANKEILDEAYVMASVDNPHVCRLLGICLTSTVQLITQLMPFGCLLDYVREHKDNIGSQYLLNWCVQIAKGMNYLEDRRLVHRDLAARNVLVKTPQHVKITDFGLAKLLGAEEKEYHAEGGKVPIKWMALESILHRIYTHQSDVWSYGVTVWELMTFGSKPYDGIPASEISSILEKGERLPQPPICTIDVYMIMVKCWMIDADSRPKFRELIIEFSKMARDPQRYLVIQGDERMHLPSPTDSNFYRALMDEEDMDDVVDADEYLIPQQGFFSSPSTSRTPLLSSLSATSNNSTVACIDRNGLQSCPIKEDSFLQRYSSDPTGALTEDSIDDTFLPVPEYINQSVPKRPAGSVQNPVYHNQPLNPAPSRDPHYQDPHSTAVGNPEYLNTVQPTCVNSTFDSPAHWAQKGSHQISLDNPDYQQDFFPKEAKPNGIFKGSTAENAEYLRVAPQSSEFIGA

Below: 5 compounds and their reported IC50.
Incoming: Item COc1cccc(-c2cc3c(Oc4cccc(Br)c4)ncnc3[nH]2)c1 has what recorded IC50?
Outgoing: 0.1 to 1 µM

Incoming: Request the reported IC50 associated with COc1cccc(-c2cc3c(Sc4ccc(C)cc4)ncnc3[nH]2)c1
Outgoing: 1 to 10 µM

Incoming: Requested field: IC50. Item: COc1cccc(-c2cc3c(Sc4cccc(C(F)(F)F)c4)ncnc3[nH]2)c1
Outgoing: 1 to 10 µM

Incoming: Which IC50 is listed for COc1ccc(-c2cc3c(Oc4cccc(Cl)c4)ncnc3[nH]2)cc1 ?
Outgoing: 0.1 to 1 µM

Incoming: Form field: reported IC50 of COc1cccc(-c2cc3c(Sc4cccc(Br)c4)ncnc3[nH]2)c1
Outgoing: 0.1 to 1 µM

---
Incoming: What does the data say about its IC50? Entry: Oc1ccc(-c2cc3c(Sc4ccc(F)cc4)ncnc3[nH]2)cc1
Outgoing: < 0.1 µM

Incoming: Look up IC50 for this compound: COc1ccc(-c2cc3c(Sc4ccc(F)cc4)ncnc3[nH]2)cc1
Outgoing: 1 to 10 µM

Incoming: Query: IC50; subject: COc1ccc(-c2cc3c(Sc4ccc(F)c(Cl)c4)ncnc3[nH]2)cc1
Outgoing: 0.1 to 1 µM

Incoming: Can you look up the measured IC50 of Clc1ccc(Sc2ncnc3c2[nH]c2ccccc23)cc1 for me?
Outgoing: 0.1 to 1 µM

---

target: UniProt:P00533
pKd: −log10 of the molar value.
molecules and their reported pKd

Incoming: Find pKd (UniProt:P00533) for the entry Oc1ccc(-c2cc3c(SCCc4ccccc4)ncnc3[nH]2)cc1 [Compound L1]
Outgoing: 5.00 to 6.00

---

Below, each of the molecules is paired with its reported pKd value.
target: EGFR (G719S) (Homo sapiens, UniProt P00533, G719S); assay: Binding of mutant-EGFR (phage-displayed kinase competition binding)
Sequence (P00533 25-1210 G719S): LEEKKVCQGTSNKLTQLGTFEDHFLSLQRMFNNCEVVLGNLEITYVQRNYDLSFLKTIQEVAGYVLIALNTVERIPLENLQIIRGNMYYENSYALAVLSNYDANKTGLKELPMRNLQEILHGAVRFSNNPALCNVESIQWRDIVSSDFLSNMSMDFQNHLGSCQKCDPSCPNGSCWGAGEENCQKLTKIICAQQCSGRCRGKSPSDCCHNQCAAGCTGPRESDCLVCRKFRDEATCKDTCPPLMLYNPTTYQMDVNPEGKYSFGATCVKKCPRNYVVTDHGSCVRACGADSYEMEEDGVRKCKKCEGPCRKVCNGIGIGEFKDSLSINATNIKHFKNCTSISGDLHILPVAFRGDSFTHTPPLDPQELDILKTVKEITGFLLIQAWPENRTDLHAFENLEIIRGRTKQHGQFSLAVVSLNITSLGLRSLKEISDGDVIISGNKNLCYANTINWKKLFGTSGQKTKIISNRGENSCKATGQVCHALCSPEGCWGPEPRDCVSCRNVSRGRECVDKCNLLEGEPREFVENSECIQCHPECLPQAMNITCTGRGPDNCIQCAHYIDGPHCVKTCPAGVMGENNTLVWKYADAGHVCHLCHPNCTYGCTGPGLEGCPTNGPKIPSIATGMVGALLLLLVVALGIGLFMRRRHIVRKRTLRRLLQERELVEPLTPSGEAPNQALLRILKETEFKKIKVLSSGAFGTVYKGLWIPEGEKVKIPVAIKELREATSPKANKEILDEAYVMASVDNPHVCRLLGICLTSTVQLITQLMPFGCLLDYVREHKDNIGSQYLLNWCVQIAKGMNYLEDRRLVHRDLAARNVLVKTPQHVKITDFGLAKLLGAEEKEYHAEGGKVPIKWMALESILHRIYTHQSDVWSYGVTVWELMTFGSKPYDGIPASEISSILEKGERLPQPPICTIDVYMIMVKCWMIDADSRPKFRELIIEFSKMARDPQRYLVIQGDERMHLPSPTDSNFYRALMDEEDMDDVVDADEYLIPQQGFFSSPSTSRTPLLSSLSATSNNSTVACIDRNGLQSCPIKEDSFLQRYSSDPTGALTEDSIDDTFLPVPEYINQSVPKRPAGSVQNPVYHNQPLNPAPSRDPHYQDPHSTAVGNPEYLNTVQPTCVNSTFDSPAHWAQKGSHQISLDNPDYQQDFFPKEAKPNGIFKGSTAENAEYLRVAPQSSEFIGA
pKd: −log10 of the molar value.

Incoming: Give pKd (EGFR (G719S) (Homo sapiens, UniProt P00533, G719S)) of the following molecule: Oc1ccc(-c2cc3c(Sc4ccccc4)ncnc3[nH]2)cc1
Outgoing: > 7.00

Incoming: Form field - read-out: pKd; system: EGFR (G719S) (Homo sapiens, UniProt P00533, G719S); submitted item: Clc1ccc(Sc2ncnc3c2[nH]c2ccccc23)cc1Cl
Outgoing: > 7.00

Others:
Incoming: Record Oc1ccc(-c2cc3c(Oc4cccc(Br)c4)ncnc3[nH]2)cc1 : what is its pKd with EGFR (G719S) (Homo sapiens, UniProt P00533, G719S)?
Outgoing: > 7.00

---

Listing: pKd of selected compounds
Biological target: EGFR (L861Q) (Homo sapiens, UniProt P00533, L861Q)
Sequence (P00533 25-1210 L861Q): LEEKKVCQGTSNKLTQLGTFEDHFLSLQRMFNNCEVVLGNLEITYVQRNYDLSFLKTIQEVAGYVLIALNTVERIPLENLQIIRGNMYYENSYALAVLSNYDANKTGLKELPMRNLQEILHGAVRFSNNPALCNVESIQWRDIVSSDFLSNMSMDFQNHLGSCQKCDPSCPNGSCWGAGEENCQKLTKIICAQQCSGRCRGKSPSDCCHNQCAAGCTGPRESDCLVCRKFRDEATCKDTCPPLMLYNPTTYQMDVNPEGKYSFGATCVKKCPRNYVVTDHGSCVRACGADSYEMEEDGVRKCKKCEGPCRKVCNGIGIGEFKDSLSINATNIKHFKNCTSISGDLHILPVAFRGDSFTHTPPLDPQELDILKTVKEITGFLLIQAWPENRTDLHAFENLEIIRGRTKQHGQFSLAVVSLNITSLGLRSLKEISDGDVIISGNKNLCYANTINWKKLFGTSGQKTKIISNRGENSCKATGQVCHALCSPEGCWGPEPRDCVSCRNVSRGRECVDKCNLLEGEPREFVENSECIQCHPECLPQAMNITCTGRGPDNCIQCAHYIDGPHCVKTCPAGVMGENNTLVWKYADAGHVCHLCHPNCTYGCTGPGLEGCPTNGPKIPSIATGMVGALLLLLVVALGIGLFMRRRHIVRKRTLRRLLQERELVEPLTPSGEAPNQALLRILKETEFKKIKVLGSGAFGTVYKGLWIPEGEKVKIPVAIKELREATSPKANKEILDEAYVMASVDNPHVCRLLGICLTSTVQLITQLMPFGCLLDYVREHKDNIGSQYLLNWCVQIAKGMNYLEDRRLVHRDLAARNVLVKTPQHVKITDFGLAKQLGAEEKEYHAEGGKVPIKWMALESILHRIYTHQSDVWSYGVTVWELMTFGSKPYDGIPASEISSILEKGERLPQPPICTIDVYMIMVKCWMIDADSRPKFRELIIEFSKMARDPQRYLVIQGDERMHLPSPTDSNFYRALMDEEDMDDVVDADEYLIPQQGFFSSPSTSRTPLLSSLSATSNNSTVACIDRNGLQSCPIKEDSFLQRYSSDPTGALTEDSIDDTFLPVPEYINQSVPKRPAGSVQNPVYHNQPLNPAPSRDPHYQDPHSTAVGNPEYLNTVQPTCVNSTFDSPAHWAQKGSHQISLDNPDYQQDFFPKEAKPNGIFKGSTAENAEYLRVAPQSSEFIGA
Experiment: Binding of mutant-EGFR (phage-displayed kinase competition binding)
Excerpt: Methods for measuring binding affinities for interactions between small molecules and kinases including FLT3, c-KIT, ABL([…]) [a.k.a. […] The components of the assays include human kinases expressed as fusions to T7 bacteriophage particles and immobilized ligands that bind to the ATP site of the kinases. […] The term “ND” represents non-determined values. […]
pKd: −log10 of the molar value.

Solved cases (2 shown):
Incoming: Can you look up the measured pKd of Clc1ccc(Sc2ncnc3c2[nH]c2ccccc23)cc1Cl [Compound K5] for me?
Outgoing: 6.00 to 7.00

Incoming: Record request: pKd value, item Oc1ccc(-c2cc3c(Sc4ccccc4)ncnc3[nH]2)cc1 [Compound L2]
Outgoing: > 7.00

Now let's try a different one.
Incoming: I would be grateful if you could share the reported pKd for Oc1ccc(-c2cc3c(Oc4cccc(Br)c4)ncnc3[nH]2)cc1 [Compound E3] .
Outgoing: > 7.00

---

target: EGFR (tyrosine 1173 phosphorylation) in A431 cells (Homo sapiens, UniProt P00533); construct: endogenous in cells; experiment: EGFR Autophosphorylation Inhibition Assay in Epidermoid Carcinoma Cell Line A431; details: EGF-induced phosphorylation of tyrosine 1173
measurementName: IC50

Before answering, review these 4 worked examples.
Incoming: Reported IC50 for Cc1ccc(Sc2ncnc3c2[nH]c2ccccc23)cc1 : what is it?
Outgoing: 100 to 1000 nM

Incoming: IC50 for Brc1cccc(Sc2ncnc3c2[nH]c2ccccc23)c1 ?
Outgoing: 100 to 1000 nM

Incoming: Which IC50 is reported for this compound? Clc1cccc(Sc2ncnc3c2[nH]c2ccccc23)c1
Outgoing: 100 to 1000 nM

Incoming: Reported IC50, compound COc1cccc(-c2cc3c(Sc4cccc(C)c4)ncnc3[nH]2)c1 : ____
Outgoing: 100 to 1000 nM

New cases:
Incoming: Suppose we examine the compound COc1ccc(-c2cc3c(Sc4ccc(C)cc4)ncnc3[nH]2)cc1 ; what IC50 value has been reported?
Outgoing: 1000 to 10000 nM

---

Overview of reported pIC50 across a group of compounds:
Biological target: EGFR (tyrosine 1173 phosphorylation) in A431 cells (Homo sapiens, UniProt P00533)
Construct: endogenous in cells
Experiment: EGFR Autophosphorylation Inhibition Assay in Epidermoid Carcinoma Cell Line A431
Details: EGF-induced phosphorylation of tyrosine 1173
Experimental: Tyrosine 1173 is a major autophosphorylation site resulting from activation of EGFR by epidermal growth factor (EGF). […] Subsequently, the samples were centrifuged at 6000× RCF for 15 minutes, and the level of phosphorylation of EGFR tyrosine 1173 was measured using a sandwich enzyme-linked immunosorbent assay following the manufacturer's recommended protocols (Biosource, Camarillo, Calif.). Total EGFR levels were also measured in the same manner to control for protein level differences. […]
pIC50: −log10 of the molar value.

Incoming: Short answer please: pIC50, EGFR (tyrosine 1173 phosphorylation) in A431 cells (Homo sapiens, UniProt P00533), entry COc1ccc(-c2cc3c(Sc4cccc(F)c4)ncnc3[nH]2)cc1
Outgoing: 5.00 to 6.00

Incoming: Hello, I am looking for reported pIC50 with EGFR (tyrosine 1173 phosphorylation) in A431 cells (Homo sapiens, UniProt P00533) for COc1cccc(-c2cc3c(Sc4ccc(F)cc4)ncnc3[nH]2)c1 . Could you help?
Outgoing: 5.00 to 6.00

Incoming: Write down the reported pIC50 of COc1ccc(-c2cc3c(Sc4cccc(Cl)c4)ncnc3[nH]2)cc1 , test system: EGFR (tyrosine 1173 phosphorylation) in A431 cells (Homo sapiens, UniProt P00533).
Outgoing: 5.00 to 6.00

Incoming: Quick check: pIC50 on EGFR (tyrosine 1173 phosphorylation) in A431 cells (Homo sapiens, UniProt P00533), item COc1cccc(-c2cc3c(Sc4cccc(Cl)c4)ncnc3[nH]2)c1 ?
Outgoing: 6.00 to 7.00
